# Test system: ERK4
# Construct: gene MAPK4
# condition context: concentration: 1 μM, replicates: in singlicate; n = 1
value kind: %Inh (%)
Express it in %; write the number only.

Before answering, review these 5 worked examples.
Sample `CC(=O)c1c(C)c2cnc(Nc3ccn(C)n3)nc2n(C2CCCC2)c1=O` ; %Inh observed: 17

Documented %Inh of CS(=O)(=O)Cc1ccc(Nc2nccc(-c3c(-c4cccc(NC(=O)C5CCCCC5)c4)nn4ncccc34)n2)cc1 [GSK350559] : 3

Noted for `COc1ccc(CSc2nnc(-c3ccc4ncsc4c3)o2)cc1C(F)(F)F` : its %Inh reads 0

%Inh reported for this compound `CNC(=O)c1ccc(C)c(-n2c(C)cc(OCc3ccc(F)cc3F)c(Br)c2=O)c1` : 0

Short answer for COc1ccc(Nc2nccc(-c3ccc(NC(=O)c4cc5cc(F)ccc5[nH]4)cc3)n2)cc1 [GSK1229496] : %Inh was 0

***
The compound identified as CCn1c(-c2c(N)noc2C)nc2cnccc21 [SB-737856] registered its %Inh at 16

Entry COC(=O)c1cccc(NC(=O)NC2CCN(c3ccnc(Nc4ccc(F)cc4)n3)C2)c1 (stereo not drawn) [GSK1379725] — recorded %Inh = 0

* * *

# Test system: RSK1(Kin.Dom.2-C-terminal)
# Construct: gene RPS6KA1
# condition context: concentration: 1 μM, replicates: in singlicate; n = 1
Entries annotated with measured %Inh
# include the unit after the value

Example entries and their recorded answers appear below.
Recorded %Inh (molecule O=C(Nc1n[nH]c2nc(-c3ccco3)c(Br)cc12)C1CCN(Cc2ccccc2)C1.O=C(O)[C@H](O)[C@@H](O)C(=O)O (stereo not shown) [SB-742034] ): 0%

The molecule listed as `CC(=O)c1c(C)c2cnc(Nc3ccc(N4CCNCC4)cn3)nc2n(C2CCCC2)c1=O` has a reported %Inh of 0%

Per the records, this molecule ( c1ccc(-c2ccnc3[nH]ccc23)cc1 [SB-693578] ) has %Inh equal to 0%

Sample CS(=O)(=O)CCNCc1nc(-c2ccc3ncnc(Nc4ccc(OCc5ccccc5)c(Cl)c4)c3c2)cs1.Cl [GW582764] ; %Inh observed: 0%

# %Inh (molecule: `COc1ccc(-c2coc3ccc(-c4nnc(C)o4)cc23)cc1` ) is 4%

***
So for Cc1ccc(NC(=O)Nc2ccccc2F)cc1-c1ccc(C(=O)Nc2ccncc2)cc1 [GSK1398477] , the logged %Inh turned out to be 0%

Lookup result for Nc1cccc(-c2ccc3c(N)n[nH]c3c2)n1 [GSK2192730] ; measured %Inh: 21%

* * *

# Test system: CAMKK1;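 also: kd values determined as follow-up on hits from a single-replicate KINOMEscan panel screen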
value kind: Kd

Tested system CAMKK1; Kd recorded for `CN1c2ccc(-c3ccc(C(N)=O)cc3)cc2-c2[nH]ncc2S1(=O)=O` was > 10 µM

* * *

# Test system: CSNK1G1
# condition context: concentration: 1 μM, replicates: in singlicate; n = 1
The entries below are paired with their reported %Inh.
Answer format: numeric, % implied, no suffix.

get_value(item= `Cc1ccc(NC(=O)Nc2ccccc2)cc1-c1ccc(C(=O)Nc2ccncc2)cc1` , readout=%Inh) returns 11

What the record says about `Cc1ccc(NC(=O)Nc2ccc(Cl)cc2)cc1-c1ccc(C(=O)Nc2ccncc2)cc1` : %Inh is 2

// %Inh value for COC(=O)C(NC(=O)NC1CCN(c2ccnc(Nc3ccc(F)cc3)n2)C1)c1ccccc1 (stereo not drawn) : 5

Notebook: `FC(F)(F)c1ccccc1-c1cc(-c2c[nH]nc2-c2ccccn2)ccn1` , %Inh read as 16

%Inh for `O=C(Nc1n[nH]c2nc(-c3cccs3)c(Br)cc12)C1CCCC1` is 0

// %Inh value for `c1ccc(-c2ccnc3[nH]ccc23)cc1` : 90.3

The value of %Inh measured for the compound `CNc1nc(-c2ccc3c(N)n[nH]c3c2)cc(N2C[C@@H](C(=O)Nc3ccccc3)CC[C@H]2C)n1` turned out to be 16

Notebook: `CS(=O)(=O)CCNCc1nc(-c2ccc3ncnc(Nc4ccc5c(cnn5Cc5ccccc5)c4)c3c2)cs1.Cl.Cl` , %Inh read as 1

---
The reported %Inh of the compound `CC(=O)c1c(C)c2cnc(Nc3ccn(C)n3)nc2n(C2CCCC2)c1=O` was 0

For `COc1cccc(NC(=O)Nc2ccc(C)c(-c3ccc(C(=O)Nc4ccncc4)cc3)c2)c1` the compound record lists %Inh as 8

compound `Cn1cnc2c(N)ncnc21` , %Inh observed: 0

Lab note: measured %Inh of `CCc1ccc(-c2ccc3c(c2)-c2n[nH]cc2S(=O)(=O)N3C)cc1` was 0

So for `Nc1ncnc2occ(-c3ccc4c(c3)CCN4C(=O)Cc3cc(F)ccc3F)c12` , the logged %Inh turned out to be 4

Input COC(=O)C(Cc1ccccc1)NC(=O)NC1CCN(c2ccnc(Nc3ccc(F)cc3)n2)C1 (stereo not drawn) . Output %Inh: 0

// %Inh value for `Cc1ccc(NC(=O)c2ccc(Cl)cc2)cc1-c1ccc(C(=O)Nc2ccncc2)cc1` : 8

The compound identified as CC(=O)c1cccc(NC(=O)NC2CCN(c3ccnc(Nc4ccc(F)cc4)n3)C2)c1 (stereo not drawn) registered its %Inh at 12

Value of %Inh reported for the compound COc1ccc(Nc2nccc(N3CCC(NC(=O)C(C)c4ccc(Cl)cc4)C3)n2)cc1 (stereo not drawn) is 0

Entry `COc1ccc(Nc2nccc(-c3ccc(NC(=O)c4cc5cc(F)ccc5[nH]4)cc3)n2)cc1` , %Inh reported as 0

FYI, the data here is from paper PMC5540273.
